Task for the reader: assign each of the following compounds its reported Tmax.
# ASSAY_PROCEDURE: Pharmacokinetic evaluation after intravenous or gavage administration in rats
# Type: in vivo, SD rats
# SETUP_CONDITIONS: SD, rat, plasma, po, i.g group, 5 mg/kg
One number for each entry, in min.

Guide cases for Tmax, answers given:
INSERT INTO results (compound, property_name, unit_of_measure, quantitative_readout) VALUES
  ('NC(=O)[C@@H]1C[C@H](F)CN1Cc1ccc(OCc2cccc(F)c2)cc1F', 'Tmax', 'min', 37.5),
  ('NC(=O)[C@@H]1C[C@H](F)CN1Cc1ccc(OCc2cccc(F)c2)cc1', 'Tmax', 'min', 20);

Short answer for NC(=O)[C@@H]1C[C@@H](F)CN1Cc1ccc(OCc2cccc(F)c2)cc1 : Tmax was 20

----------
# ASSAY_PROCEDURE: Pharmacokinetic evaluation after intravenous or gavage administration in monkeys
# Assay type: in vivo
# SETUP_CONDITIONS: monkey, plasma, po, i.g group, 5 mg/kg
PROPERTY_NAME: AUC(0-inf) (ng·h/mL)
Answers are plain numbers, in ng·h/mL.

INSERT INTO results (compound, quantitative_readout) VALUES
  ('NC(=O)[C@@H]1C[C@H](F)CN1Cc1ccc(OCc2cccc(F)c2)cc1', 11400);

--- query ---
Per the records, this compound ( NC(=O)[C@@H]1C[C@H](F)CN1Cc1ccc(OCc2cccc(F)c2)cc1F ) has AUC(0-inf) equal to 11200

----------
# ASSAY_PROCEDURE: Pharmacokinetic evaluation after intravenous or gavage administration in dogs
# Format: in vivo, Beagle dogs
# SETUP_CONDITIONS: beagle, dog, plasma, iv, i.v group, 1 mg/kg
# Experimental: The LC-MS/MS system comprises Agilent 1200 series vacuum degassing furnace, quaternary pumps, well-plate autosampler, thermostatted column compartment, the API4000Qtrap Triple Quadrupole Mass Spectrometer with an electrospray ionization (ESI) source. Quantitative analysis was carried out using MRM mode. The parameters for MRM transitions are in Table 2. […]
Please provide measured half-life for the entries that follow.

INSERT INTO results (compound, result) VALUES
  ('NC(=O)[C@@H]1C[C@H](F)CN1Cc1ccc(OCc2cccc(F)c2)cc1', '5.05 h');

Now for another entry.
compound NC(=O)[C@@H]1C[C@H](F)CN1Cc1ccc(OCc2cccc(F)c2)cc1F , half-life observed: 1.13 h

----------
# ASSAY_PROCEDURE: Evaluation of blood-brain barrier (BBB) after peritoneal injection in rats
# Format: in vivo
# SETUP_CONDITIONS: Sprague-Dawley, rat, cerebrospinal fluid; SD rats, intraperitoneal 10 mg/kg, 120 min; read-out: T/P Ratio CSF (cerebrospinal fluid)
For each of the compounds below, state its Kp at 120 min.
Give bare numbers.

// each compound listed below needs its Kp at 120 min
1. NC(=O)[C@@H]1C[C@H](F)CN1Cc1ccc(OCc2cccc(F)c2)cc1F [Example 3]
2. NC(=O)[C@@H]1C[C@H](F)CN1Cc1ccc(OCc2cccc(F)c2)cc1 [Example 1]

// result
1: 0.019; 2: 0.04

----------
Consider the following compounds; for each one, report its Tmax.
# ASSAY_PROCEDURE: Pharmacokinetic evaluation after intravenous or gavage administration in monkeys
# Format: in vivo
# SETUP_CONDITIONS: monkey, plasma, iv, i.v group, 1 mg/kg
Give bare numbers, in min.

INSERT INTO assay_data (compound, quantitative_readout) VALUES
  ('NC(=O)[C@@H]1C[C@H](F)CN1Cc1ccc(OCc2cccc(F)c2)cc1F', 4.98);

The compound identified as NC(=O)[C@@H]1C[C@H](F)CN1Cc1ccc(OCc2cccc(F)c2)cc1 registered its Tmax at 4.98

----------
Assign AUC(0-t) to each entry below.
# ASSAY_PROCEDURE: Pharmacokinetic evaluation after intravenous or gavage administration in rats
# Format: in vivo, SD rats
# SETUP_CONDITIONS: SD, rat, plasma, iv, i.v group, 1 mg/kg
Give bare numbers, in ng·h/mL.

INSERT INTO measurements (compound, unit_of_measure, quantitative_readout) VALUES
  ('NC(=O)[C@@H]1C[C@@H](F)CN1Cc1ccc(OCc2cccc(F)c2)cc1', 'ng·h/mL', 452);

Shift focus to the following entry.
# compound NC(=O)[C@@H]1C[C@H](F)CN1Cc1ccc(OCc2cccc(F)c2)cc1F ; its AUC(0-t) = 582

----------
# ASSAY_PROCEDURE: Pharmacokinetic evaluation after intravenous or gavage administration in monkeys
# Assay type: in vivo
# SETUP_CONDITIONS: monkey, plasma, iv, i.v group, 1 mg/kg
PROPERTY_NAME: AUC(0-t) (ng·h/mL)
Answers are plain numbers, in ng·h/mL.

Form field AUC(0-t), entry NC(=O)[C@@H]1C[C@H](F)CN1Cc1ccc(OCc2cccc(F)c2)cc1F : 3240

----------
# ASSAY_PROCEDURE: Pharmacokinetic evaluation after intravenous or gavage administration in monkeys
# Assay type: in vivo
# SETUP_CONDITIONS: monkey, plasma, po, i.g group, 5 mg/kg, read-out: Cmax
# Experimental: The LC-MS/MS system comprises Agilent 1200 series vacuum degassing furnace, quaternary pumps, well-plate autosampler, thermostatted column compartment, the API4000Qtrap Triple Quadrupole Mass Spectrometer with an electrospray ionization (ESI) source. Quantitative analysis was carried out using MRM mode. The parameters for MRM transitions are in Table 2. […]
PROPERTY_NAME: Cmax (ng/mL)
Answers are plain numbers, in ng/mL.

Form field Cmax, entry NC(=O)[C@@H]1C[C@H](F)CN1Cc1ccc(OCc2cccc(F)c2)cc1F [Example 3] : 2010

----------
# ASSAY_PROCEDURE: Evaluation of blood-brain barrier (BBB) after peritoneal injection in rats
# Format: in vivo
# SETUP_CONDITIONS: Sprague-Dawley, rat, brain; SD rats, intraperitoneal 10 mg/kg, 15 min; read-out: T/P Ratio Brain (brain tissue)
For each record, write down the corresponding Kp at 15 min.
Give bare numbers.

INSERT INTO results (molecule, quantitative_readout) VALUES
  ('NC(=O)[C@@H]1C[C@H](F)CN1Cc1ccc(OCc2cccc(F)c2)cc1 [Example 1]', 1.97);

With those in mind, consider the next molecule.
In plain terms, NC(=O)[C@@H]1C[C@H](F)CN1Cc1ccc(OCc2cccc(F)c2)cc1F [Example 3] has a documented Kp at 15 min of 2.46

----------
# ASSAY_PROCEDURE: Pharmacokinetic evaluation after intravenous or gavage administration in dogs
# Type: in vivo, Beagle dogs
# SETUP_CONDITIONS: beagle, dog, plasma, po, i.g group, 5 mg/kg
What MRT inf was measured for each of the following?
State the value, then name its unit.

INSERT INTO results (compound, result) VALUES
  ('NC(=O)[C@@H]1C[C@H](F)CN1Cc1ccc(OCc2cccc(F)c2)cc1F', '1.44 h');

Now, please, on to the next molecule.
Lab book: MRT inf of NC(=O)[C@@H]1C[C@H](F)CN1Cc1ccc(OCc2cccc(F)c2)cc1 noted as 2.98 h
